This collection of values is drawn from ChEMBL document CHEMBL2021887.

Test system: Human immunodeficiency virus 1
measurementNotes: Antiviral activity against X4 tropic HIV1 pNL4.3-Ren infected in human MT2 cells at 10 uM dosed simultaneously with virus infection measured 48 hrs post-infection by recombinant virus assay
Format: functional
runParameters: Human immunodeficiency virus 1, pNL4.3-Ren, MT2, 48 h; values are per cent of control
measurementKind: residual activity at 10 µM (%)
Hi! Could you send only the number? It should be in %, unit omitted.

May I ask what residual activity at 10 µM has been recorded for "CC1(C)C=C2[C@H]3CC[C@@H]4[C@@]5(C)CCC(=O)C(C)(C)[C@@H]5[C@H](O)C[C@@]4(C)[C@]3(C)CC[C@@]2(C)CC1" ?
28

May I ask what residual activity at 10 µM has been recorded for "CC1(C)C=C2[C@H]3CC[C@@H]4[C@@]5(C)CC[C@H](O)C(C)(C)[C@@H]5CC[C@@]4(C)[C@]3(C)CC[C@@]2(C)C[C@H]1O" ?
18

May I ask what residual activity at 10 µM has been recorded for CC1(C)C=C2[C@H]3CC[C@@H]4[C@@]5(C)CCC(=O)C(C)(C)[C@@H]5CC[C@@]4(C)[C@]3(C)CC[C@@]2(C)CC1 [GERMANICONE] ?
84

May I ask what residual activity at 10 µM has been recorded for "CC(=O)O[C@H]1CC[C@]2(C)[C@H]3CC[C@@H]4C5=CC(C)(C)[C@H](OC(C)=O)C[C@]5(C)CC[C@@]4(C)[C@]3(C)CC[C@H]2C1(C)C" ?
107

May I ask what residual activity at 10 µM has been recorded for "CC(=O)O[C@H]1CC[C@]2(C)[C@H]3CC[C@@H]4C5=CC(C)(C)CC[C@]5(C)CC[C@@]4(C)[C@]3(C)C[C@@H](O)[C@H]2C1(C)C" ?
102

May I ask what residual activity at 10 µM has been recorded for "CC1(C)C=C2[C@H]3CC[C@@H]4[C@@]5(C)CCC(=O)C(C)(C)[C@@H]5CC[C@@]4(C)[C@]3(C)CC[C@@]2(C)C[C@H]1O" ?
22
